# target: UniProtKB O94966
# Sequence (O94966 whole entry): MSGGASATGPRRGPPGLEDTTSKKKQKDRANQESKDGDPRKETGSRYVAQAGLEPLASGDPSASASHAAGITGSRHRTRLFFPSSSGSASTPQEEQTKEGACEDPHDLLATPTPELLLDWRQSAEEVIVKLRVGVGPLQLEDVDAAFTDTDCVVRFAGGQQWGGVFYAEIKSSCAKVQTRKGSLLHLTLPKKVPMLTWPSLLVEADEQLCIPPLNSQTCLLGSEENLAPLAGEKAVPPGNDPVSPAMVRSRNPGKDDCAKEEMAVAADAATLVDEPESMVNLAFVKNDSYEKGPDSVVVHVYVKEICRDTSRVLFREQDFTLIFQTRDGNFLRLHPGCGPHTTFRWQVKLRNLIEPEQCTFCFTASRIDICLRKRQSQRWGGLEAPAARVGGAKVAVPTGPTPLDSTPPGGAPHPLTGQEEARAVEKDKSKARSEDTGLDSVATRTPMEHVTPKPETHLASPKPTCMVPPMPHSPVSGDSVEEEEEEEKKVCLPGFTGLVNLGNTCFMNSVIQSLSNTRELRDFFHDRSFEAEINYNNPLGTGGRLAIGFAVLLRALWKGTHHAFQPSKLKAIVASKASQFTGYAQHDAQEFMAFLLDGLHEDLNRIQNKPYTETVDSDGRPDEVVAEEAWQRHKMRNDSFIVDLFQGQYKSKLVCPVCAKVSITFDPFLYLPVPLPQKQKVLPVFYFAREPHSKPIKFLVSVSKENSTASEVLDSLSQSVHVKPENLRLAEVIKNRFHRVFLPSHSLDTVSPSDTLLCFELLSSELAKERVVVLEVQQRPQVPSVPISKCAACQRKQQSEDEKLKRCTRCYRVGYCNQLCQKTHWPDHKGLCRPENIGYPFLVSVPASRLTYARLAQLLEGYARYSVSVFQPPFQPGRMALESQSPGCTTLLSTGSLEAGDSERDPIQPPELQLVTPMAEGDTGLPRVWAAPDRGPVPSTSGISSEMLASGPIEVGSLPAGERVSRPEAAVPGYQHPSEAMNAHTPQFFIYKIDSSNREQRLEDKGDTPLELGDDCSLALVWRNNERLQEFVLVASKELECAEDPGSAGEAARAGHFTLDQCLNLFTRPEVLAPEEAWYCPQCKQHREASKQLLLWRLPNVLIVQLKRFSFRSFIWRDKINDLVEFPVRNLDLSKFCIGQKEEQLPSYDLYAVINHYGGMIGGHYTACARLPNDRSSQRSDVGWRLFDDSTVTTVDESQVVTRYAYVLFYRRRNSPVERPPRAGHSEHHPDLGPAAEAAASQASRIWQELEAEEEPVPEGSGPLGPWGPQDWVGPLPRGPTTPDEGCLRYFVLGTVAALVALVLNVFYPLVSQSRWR
# procedure-text: Inhibition of C-terminal His6-tagged recombinant human USP19 using iso-peptide ubiquitin-Lys-TAMRA as substrate incubated for 30 mins and measured after 90 mins by fluorescent polarization assay
Recorded IC50 values for a group of molecules are listed next.

Reference set (5 entries):
[
  {
    "molecule": "C[C@H](CC1CCCCC1)C(=O)N1CCC(O)(Cn2cc(C(=O)N3CCNCC3)c(-c3ccccc3)cc2=O)C2(CCCCC2)C1 (stereo partly drawn)",
    "IC50": "< 0.5 µM"
  },
  {
    "molecule": "CN(C)C(=O)c1cn(CC2(O)CCN(C(=O)c3c[nH]nc3-c3ccccc3)CC23CCCC3)c(=O)cc1-c1ccccc1 (stereo not drawn)",
    "IC50": "≤ 5 µM"
  },
  {
    "molecule": "CN(C)C(=O)c1cn(CC2(O)CCN(C(=O)C(O)CC3CCCCC3)CC23CCCC3)c(=O)cc1-c1ccccc1 (stereo not drawn)",
    "IC50": "< 0.5 µM"
  },
  {
    "molecule": "O=C(CCC1CCC1)N1CCC(O)(Cn2cnc(-c3ccccc3F)cc2=O)CC1",
    "IC50": "≥ 50 µM"
  },
  {
    "molecule": "C[C@@H]1CN(C(=O)c2cn(C[C@]3(O)CCN(C(=O)[C@H](C)CC4CCCCC4)CC3(C)C)c(=O)cc2-c2ccccc2)CCN1",
    "IC50": "< 0.5 µM"
  }
]

[Q] Name the reported IC50 value associated with the molecule O=C(C(F)CC1CCCCC1)N1CCC(O)(Cn2cnc(-c3ccccc3F)cc2=O)CC1 (racemic)
[A] ≥ 50 µM

[Q] Now give it for "C[C@H](CC1CCCCC1)C(=O)N1CC[C@@](O)(Cn2cc(C(=O)N(C)C)c(-c3ccccc3F)cc2=O)C2(CCCC2)C1" too.
[A] < 0.5 µM

[Q] What do you have for "C[C@H](CC1CCCCC1)C(=O)N1CC[C@@](O)(Cn2cc(C(=O)N3CCNCC3)c(-c3ccccc3F)cc2=O)C(C)(C)C1" ?
[A] < 0.5 µM
